System: chick embryo vitelline capillaries
method-notes: Chick embryo vitelline capillary regression assay
Assay type: in vivo
condition-set: in words
measured-endpoint: effect on chick embryo vessels / blood

[[record]]
smiles_text = "C[C@H](CCC(=O)O)[C@H]1CC[C@H]2[C@@H]3[C@H](O)C[C@@H]4C[C@@H](NCCN)CC[C@]4(C)[C@H]3CC[C@]12C"
measured_endpoint = "effect on chick embryo vessels / blood"
assay_value = "especially active"

[[record]]
smiles_text = "C[C@H](CCC(=O)O)[C@H]1CC[C@H]2[C@@H]3CC[C@H]4C[C@@H](NCCCNCCCCN)CC[C@]4(C)[C@H]3CC[C@]12C"
measured_endpoint = "effect on chick embryo vessels / blood"
assay_value = "especially active"

